# procedure_summary: BSK_CASM3C_Proliferation: Cell Proliferation Assessment in the BioMAP Diversity Plus: CASM3C Assay (AID 2283047);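 note: sulforhodamine B total protein stain as relative cell number at 560 nm; sub-confluent cells exposed 48 h before staining; fitted both ways against DMSO so gain or loss of cell number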
# stated_conditions: primary human coronary artery smooth muscle cells
Active and inactive are the calls of the source. Rule for the calls: active = hit-call score of the fitted dose curve at least 0.9, where 1 is the maximum; inactive = score below 0.9.
Pick from t (active), f (inactive) when you respond.

Solved cases (5 shown):
{"compound": "C[C@]12C=CC3=C4CCC(=O)C=C4CC[C@H]3[C@@H]1CC[C@@H]2O", "label": "f"}
{"compound": "Cc1cccc(N)c1N", "label": "f"}
{"compound": "c1ccc(C2CO2)cc1 (stereo not given)", "label": "f"}
{"compound": "[Cl-].[Cl-].[Hg+2]", "label": "t"}
{"compound": "C=CCc1ccc2c(c1)OCO2", "label": "f"}

Lab log entry: "CN(C)[C@@H]1C(=O)C(C(N)=O)=C(O)[C@@]2(O)C(=O)C3=C(O)c4c(O)cccc4[C@@](C)(O)[C@H]3C[C@@H]12" — outcome as called in the assay?
f

So what was the verdict on "c1ccc(N=Nc2ccccc2)cc1" in this test?
f

Call for entry "Nc1ccc(Cc2ccc(N)cc2)cc1" :
f

GET /call?item= "O=P(OCCCl)(OCCCl)OCCCl" returns the recorded outcome of this test.
f

Just curious, what result did "Cn1cc(-c2ccccc2)c(=O)c(-c2cccc(C(F)(F)F)c2)c1" get here?
f
